The reported measurements were obtained from patent US20260048036A1.

- ASSAY_COMMENT: physchem
- CONDITION_NOTES: FaSSIF-V1, 37 °C, pH 6.5, fassif, thermodynamic from solid
ENDPOINT_NAME: solubility at 2 h
Be sure to follow the number with its unit.

Q: Tell us which solubility at 2 h value is on record for O=C(N[C@H](CN1CCCC1)[C@H](O)c1ccc(OC2CC2)c(Cl)c1)/C(=N/O)c1ccc2cc(Cl)ccc2c1 [Crystalline Form A of Compound 1]
Ans: 30 µg/mL

* * *

- ASSAY_COMMENT: physchem
- CONDITION_NOTES: FeSSIF-V1, 37 °C, pH 5, fessif, thermodynamic from solid
ENDPOINT_NAME: solubility at 2 h (µg/mL)
Give the value, in units of µg/mL, as a plain number.

Q: Dear colleague, please send me the reported solubility at 2 h for O=C(N[C@H](CN1CCCC1)[C@H](O)c1ccc(OC2CC2)c(Cl)c1)/C(=N/O)c1ccc2cc(Cl)ccc2c1 [Crystalline Form A of Compound 1] when you can.
Ans: 1970
